Test system: MDA-MB-231 breast
Assay: NCI-60 one-dose screen, 48 h
Conditions: 10 µM unless noted
This is part of a sample that, as a whole, favours compounds with a hit. Of some 83,000 tested, about 20% had one in any assay. Active and inactive are the calls of the source. How the source made its calls: active means growth percent below 10; inactive means the rest.
Labels: active, inactive

{"COMPOUND": "Cc1c(C(=O)N[C@@H](Cc2ccccc2)C(=O)C(=O)NCCc2ccccc2)[nH]c2ccccc2c1=O", "CLASS LABEL": "inactive"}
{"COMPOUND": "Cc1cc(NCc2cc(Nc3ccnc4cc(Cl)ccc34)ccc2F)nc(N2CCN(C)CC2)n1", "CLASS LABEL": "active"}
{"COMPOUND": "COc1cccc(-c2nn(-c3ccccc3)cc2-c2ccnc(NCCCNC(=O)c3ccccc3)c2)c1", "CLASS LABEL": "inactive"}
{"COMPOUND": "O=C(CCc1nnc(CN(c2ccccc2)c2ccccc2)o1)c1nc2ccccc2[nH]1", "CLASS LABEL": "inactive"}
{"COMPOUND": "NC(=S)Nc1cccc(O)c1", "CLASS LABEL": "inactive"}
{"COMPOUND": "O=C(c1ccccc1)c1c(/C=C/c2ccccc2)nc2ccccc2c1/C=C/c1ccc(Br)cc1", "CLASS LABEL": "inactive"}
{"COMPOUND": "CCCCCCCCCOc1c(OC)cc(C2CC(=O)Nc3c2c(C)nn3-c2nc3ccccc3[nH]2)cc1OC (stereo unspecified)", "CLASS LABEL": "active"}
{"COMPOUND": "CCOc1ccccc1-c1cc(-c2cccs2)c(C#N)c(=O)[nH]1", "CLASS LABEL": "inactive"}
{"COMPOUND": "Oc1ccc(CN2CCC(N3CCOCC3)CC2)c2cccnc12", "CLASS LABEL": "inactive"}
{"COMPOUND": "Cc1ccc(N(C(=O)CCc2c[nH]c3ccccc23)[C@H](C(=O)Nc2ccc(Cl)cc2)c2cccc([N+](=O)[O-])c2)cc1", "CLASS LABEL": "inactive"}
{"COMPOUND": "C(=N\\Nc1ncc(-c2cc3cc4c(cc3o2)OCO4)s1)/c1ccco1", "CLASS LABEL": "inactive"}
{"COMPOUND": "CCSC1=NC2C(N(CC)C(=O)N2CC)N1/N=C/C=C/c1ccccc1[N+](=O)[O-] (stereo unspecified)", "CLASS LABEL": "active"}
{"COMPOUND": "O=C(CCCCCCN1CC(=O)N2[C@@H](c3ccccc3Cl)c3[nH]c4ccccc4c3C[C@H]2C1=O)NO", "CLASS LABEL": "inactive"}
{"COMPOUND": "O=C(Nc1ccc(Cl)cc1)Nc1ccc(Cl)c(C(F)(F)F)c1", "CLASS LABEL": "active"}
{"COMPOUND": "CCN(CC)CCCC(C)Nc1c2ccc(Cl)cc2nc2ccc(O)cc12 (stereo unspecified)", "CLASS LABEL": "inactive"}
{"COMPOUND": "O=C1Nc2ccccc2/C1=C/c1cn(C(=O)c2ccc(Cl)cc2)c2ccccc12", "CLASS LABEL": "inactive"}
{"COMPOUND": "COc1cc2ncn3c(=O)c4c5c(sc4nc3c2cc1OC)CCCC5", "CLASS LABEL": "inactive"}
{"COMPOUND": "O=C1/C(=C/c2ccccc2)CCc2nc3ccccc3c(/C=C/c3ccc(Cl)cc3)c21", "CLASS LABEL": "inactive"}
{"COMPOUND": "COc1ccc(C2C(c3nn[nH]n3)=C(N)Oc3c2ccc2ccccc32)cc1 (stereo unspecified)", "CLASS LABEL": "inactive"}
{"COMPOUND": "O=C1Nc2ccc(F)cc2C12Nc1cc(Cl)ccc1S2 (stereo unspecified)", "CLASS LABEL": "inactive"}
{"COMPOUND": "NNC(=O)c1nc(N)n(-c2ccc(S(N)(=O)=O)cc2)n1", "CLASS LABEL": "inactive"}
{"COMPOUND": "COc1ccc2[nH]c(O)c(/C=c3/cc4c(c(-c5ccc(F)c(OC)c5)n3)=Nc3ccccc3-4)c2c1", "CLASS LABEL": "active"}
{"COMPOUND": "O=C(/C=C/c1ccc(Cl)nc1)c1ccc(Cl)cc1Cl", "CLASS LABEL": "inactive"}
{"COMPOUND": "O=c1c2cc(F)ccc2sc2c(NCCCN3CCCC3)nc3ccccc3c12", "CLASS LABEL": "inactive"}
{"COMPOUND": "C=CC(=O)Nc1cccc(Oc2nccc(Nc3nnc(C4CC4)s3)n2)c1", "CLASS LABEL": "inactive"}
{"COMPOUND": "O=C(COc1ccc(/C=C2\\Oc3ccccc3C2=O)cc1)Nc1nc2c(s1)CCCC2", "CLASS LABEL": "inactive"}
{"COMPOUND": "N#C/C(=C\\c1ccc(Br)cc1)n1nnc2cc(F)c(F)cc21", "CLASS LABEL": "inactive"}
{"COMPOUND": "O=Cc1ccc(O)c2ncccc12", "CLASS LABEL": "inactive"}
{"COMPOUND": "CCc1ccccc1NC(=O)/C(C#N)=C/c1ccc(OC)cc1", "CLASS LABEL": "inactive"}
{"COMPOUND": "COCCN(C(=O)c1ccc(F)cc1F)c1c(N)n(Cc2ccccc2)c(=O)[nH]c1=O", "CLASS LABEL": "inactive"}
{"COMPOUND": "OC(c1cccc(-n2ccc(C(F)(F)F)n2)c1)c1cnccc1NC1CCCCCC1 (stereo unspecified)", "CLASS LABEL": "active"}
{"COMPOUND": "CCCCn1c(=O)c2c(nc3n2CCCN3CCc2ccc(OCC(=O)NCCN(CC)CC)cc2)n(CCCC)c1=O", "CLASS LABEL": "inactive"}
{"COMPOUND": "COCN1CCC2N(COC)CCC3N(COC)CCC1N23 (stereo unspecified)", "CLASS LABEL": "inactive"}
{"COMPOUND": "CCOC(=O)C/C(C)=N\\NC(=O)c1ccncc1", "CLASS LABEL": "inactive"}
{"COMPOUND": "CCCCCCCOc1c(OC)cc(C2CC(=O)Nc3c2c(C)nn3-c2nc3ccccc3[nH]2)cc1OC (stereo unspecified)", "CLASS LABEL": "active"}
{"COMPOUND": "COc1ccccc1NC(=O)N/C(N)=N/c1nc2ccccc2s1", "CLASS LABEL": "inactive"}
{"COMPOUND": "O=C(Nc1ccccc1Cl)Oc1ccc(-c2ccccc2)cc1", "CLASS LABEL": "inactive"}
{"COMPOUND": "COC(=O)CCC1=C(C)C2=NC1=CC1=NC(=CC3=NC(=Cc4[nH]c(/c(=C(/C)O)c4C)=C2)C(C(C)=O)=C3C)C(C)=C1CCC(=O)OC", "CLASS LABEL": "inactive"}
{"COMPOUND": "CCCCN(CCCC)CC(C)(C)C(O)c1ccc(OC)c2ccccc12 (stereo unspecified)", "CLASS LABEL": "inactive"}
{"COMPOUND": "O=C(N/N=C/c1ccncc1)c1ccc(C(F)(F)F)nc1Nc1cccc(C(F)(F)F)c1", "CLASS LABEL": "inactive"}
{"COMPOUND": "CC/C=C1/C(=O)C=C[C@@H]1C/C=C\\CCCC(=O)O", "CLASS LABEL": "inactive"}
